// data source = ChEMBL document CHEMBL4257503

- Assay System: Fibroblast growth factor receptor 1 (Homo sapiens, UniProt P11362)
- Sequence (P11362 whole entry): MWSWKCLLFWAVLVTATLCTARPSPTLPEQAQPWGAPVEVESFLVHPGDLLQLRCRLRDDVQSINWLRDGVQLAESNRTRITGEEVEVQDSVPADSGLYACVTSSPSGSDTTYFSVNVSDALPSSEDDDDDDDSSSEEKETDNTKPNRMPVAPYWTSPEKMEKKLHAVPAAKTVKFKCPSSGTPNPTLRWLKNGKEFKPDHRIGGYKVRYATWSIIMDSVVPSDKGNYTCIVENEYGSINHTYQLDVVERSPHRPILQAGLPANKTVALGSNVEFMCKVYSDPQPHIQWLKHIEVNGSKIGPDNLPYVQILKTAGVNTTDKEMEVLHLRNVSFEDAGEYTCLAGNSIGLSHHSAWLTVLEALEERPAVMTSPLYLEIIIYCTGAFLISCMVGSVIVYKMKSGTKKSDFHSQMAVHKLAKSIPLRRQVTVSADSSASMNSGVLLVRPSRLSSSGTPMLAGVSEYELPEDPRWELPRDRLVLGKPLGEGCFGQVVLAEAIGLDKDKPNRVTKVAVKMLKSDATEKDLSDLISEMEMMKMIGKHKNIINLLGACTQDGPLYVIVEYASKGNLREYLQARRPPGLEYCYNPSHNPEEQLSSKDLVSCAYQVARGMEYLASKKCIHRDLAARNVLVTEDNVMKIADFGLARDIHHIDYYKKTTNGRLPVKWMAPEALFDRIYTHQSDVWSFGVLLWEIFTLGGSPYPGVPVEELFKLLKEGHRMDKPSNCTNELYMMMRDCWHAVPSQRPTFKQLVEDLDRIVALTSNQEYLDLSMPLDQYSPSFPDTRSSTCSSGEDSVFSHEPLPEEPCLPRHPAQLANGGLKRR
pIC50: −log10 of the molar value.
Measure: pIC50

CC(=O)n1nc(C)c(-c2ccc(Cl)c(Cl)c2)c1N : < 4.00

* * *

- Assay System: Mitogen-activated protein kinase kinase kinase 14 (Homo sapiens, UniProt Q99558)
- Sequence (Q99558 whole entry, the tested form may be a part): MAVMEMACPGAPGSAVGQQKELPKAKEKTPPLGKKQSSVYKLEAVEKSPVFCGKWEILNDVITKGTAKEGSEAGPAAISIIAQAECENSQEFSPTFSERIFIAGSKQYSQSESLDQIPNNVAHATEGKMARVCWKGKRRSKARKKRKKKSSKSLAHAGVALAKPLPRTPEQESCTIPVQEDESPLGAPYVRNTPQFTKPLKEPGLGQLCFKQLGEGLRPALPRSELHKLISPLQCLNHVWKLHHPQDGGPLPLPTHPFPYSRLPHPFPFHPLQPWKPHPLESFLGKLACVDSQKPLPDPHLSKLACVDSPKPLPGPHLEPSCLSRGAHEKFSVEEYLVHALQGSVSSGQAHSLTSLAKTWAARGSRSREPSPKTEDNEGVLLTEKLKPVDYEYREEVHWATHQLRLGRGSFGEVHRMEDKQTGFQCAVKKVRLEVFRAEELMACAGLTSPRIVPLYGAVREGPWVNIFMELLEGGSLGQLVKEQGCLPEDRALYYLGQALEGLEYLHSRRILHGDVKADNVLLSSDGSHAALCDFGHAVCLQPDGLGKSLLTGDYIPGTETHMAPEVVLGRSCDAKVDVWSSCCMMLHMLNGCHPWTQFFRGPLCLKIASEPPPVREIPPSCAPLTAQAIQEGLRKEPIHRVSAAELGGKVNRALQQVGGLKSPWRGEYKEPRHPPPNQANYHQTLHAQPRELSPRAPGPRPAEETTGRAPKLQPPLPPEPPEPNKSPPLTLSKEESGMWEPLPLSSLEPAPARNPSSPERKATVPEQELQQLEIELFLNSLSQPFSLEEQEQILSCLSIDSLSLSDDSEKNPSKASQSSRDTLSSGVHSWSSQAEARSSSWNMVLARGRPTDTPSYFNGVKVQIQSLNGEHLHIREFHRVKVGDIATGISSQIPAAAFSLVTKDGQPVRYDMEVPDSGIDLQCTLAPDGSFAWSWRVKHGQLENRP
- Test Summary: Inhibition of recombinant human full-length N-terminal GST-fused/His6-tagged NIK (M1 to P947 residues) expressed in Sf9 insect cells using AKDVDQGSLCTSFVGTLQY peptide as substrate measured after 60 mins by ADP-Glo kinase assay
Let's look at some compounds and their measured IC50.
Measure: IC50

Cc1[nH]nc(N)c1-c1cccc(OC(F)(F)F)c1 : > 100 µM
Cc1nn(C(=O)C2CCCCC2)c(N)c1-c1ccc(Cl)c(Cl)c1 : 3.3 µM
CC(=O)n1nc(C)c(-c2ccc(C)c(C)c2)c1N : 39.6 µM
CC(=O)n1nc(C)c(-c2cccc(Cl)c2)c1N : > 100 µM
Cc1[nH]nc(N)c1-c1cccc(C(F)(F)F)c1 : > 100 µM
Cc1nn(C(=O)C2CCC2)c(N)c1-c1ccc(Cl)c(Cl)c1 : 2.9 µM
CC(=O)n1nc(C)c(Br)c1N : > 100 µM
COCCOc1cnc(N)nc1-c1c[nH]c2ccc(C#CC(C)(C)O)cc12 : 0.07 µM
Cc1[nH]nc(N)c1-c1ccc2c(c1)OCO2 : > 100 µM
Cc1nn(C)c(N)c1-c1ccc(Cl)c(Cl)c1 : > 100 µM
CC(=O)n1nc(C)c(-c2ccc(Cl)cc2)c1N : > 100 µM
Cc1nn(C(=O)OC(C)(C)C)c(N)c1-c1ccc(Cl)c(Cl)c1 : > 100 µM

* * *

- Assay System: Mitogen-activated protein kinase kinase kinase 11 (Homo sapiens, UniProt Q16584)
- Sequence (Q16584 whole entry): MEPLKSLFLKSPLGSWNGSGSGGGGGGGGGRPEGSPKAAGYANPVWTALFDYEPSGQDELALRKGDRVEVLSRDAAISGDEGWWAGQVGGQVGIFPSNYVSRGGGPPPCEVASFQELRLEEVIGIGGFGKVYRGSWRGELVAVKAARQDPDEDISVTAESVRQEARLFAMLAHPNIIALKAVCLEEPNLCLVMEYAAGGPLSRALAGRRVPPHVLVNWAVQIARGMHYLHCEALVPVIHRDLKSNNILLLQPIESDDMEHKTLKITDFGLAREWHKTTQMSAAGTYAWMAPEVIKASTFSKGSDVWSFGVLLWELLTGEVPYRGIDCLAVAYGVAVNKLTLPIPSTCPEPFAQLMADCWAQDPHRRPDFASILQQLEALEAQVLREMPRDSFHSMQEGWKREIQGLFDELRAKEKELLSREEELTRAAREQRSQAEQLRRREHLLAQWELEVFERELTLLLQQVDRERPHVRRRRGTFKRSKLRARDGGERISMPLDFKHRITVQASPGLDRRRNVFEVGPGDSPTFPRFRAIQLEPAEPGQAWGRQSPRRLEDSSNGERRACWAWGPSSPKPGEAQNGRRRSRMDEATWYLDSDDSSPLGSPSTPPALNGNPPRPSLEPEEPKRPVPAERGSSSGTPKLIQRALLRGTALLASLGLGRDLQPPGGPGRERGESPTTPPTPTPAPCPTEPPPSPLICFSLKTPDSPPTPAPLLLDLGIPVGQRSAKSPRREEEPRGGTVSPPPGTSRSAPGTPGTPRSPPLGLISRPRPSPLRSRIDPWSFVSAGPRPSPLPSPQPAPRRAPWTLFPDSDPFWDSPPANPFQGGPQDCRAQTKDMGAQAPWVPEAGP
- Test Summary: Inhibition of MAP3K11 (unknown origin)
pIC50: −log10 of the molar value.
Measure: pIC50

CC(=O)n1nc(C)c(-c2ccc(Cl)c(Cl)c2)c1N : < 4.00

* * *

- Assay System: Casein kinase II subunit alpha (Homo sapiens)
- Sequence (P68400 whole entry): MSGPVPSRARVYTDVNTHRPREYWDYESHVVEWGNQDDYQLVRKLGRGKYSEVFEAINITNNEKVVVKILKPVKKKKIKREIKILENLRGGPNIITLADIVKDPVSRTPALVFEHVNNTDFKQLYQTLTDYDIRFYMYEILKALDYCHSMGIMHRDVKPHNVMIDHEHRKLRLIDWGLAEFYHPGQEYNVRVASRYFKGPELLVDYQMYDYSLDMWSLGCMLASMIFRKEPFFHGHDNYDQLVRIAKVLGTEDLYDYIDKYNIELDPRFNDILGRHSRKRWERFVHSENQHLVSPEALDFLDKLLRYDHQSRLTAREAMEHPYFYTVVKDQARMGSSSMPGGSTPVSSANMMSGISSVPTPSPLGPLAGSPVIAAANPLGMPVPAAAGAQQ
- Test Summary: Inhibition of CK2-alpha1 (unknown origin)
Measure: IC50

CC(=O)n1nc(C)c(-c2ccc(Cl)c(Cl)c2)c1N : > 100 µM

* * *

- Assay System: Platelet-derived growth factor receptor alpha (Homo sapiens, UniProt P16234)
pIC50: −log10 of the molar value.
Measure: pIC50

CC(=O)n1nc(C)c(-c2ccc(Cl)c(Cl)c2)c1N : < 4.00

* * *

- Test Summary: Cytotoxicity against human SKBR3 cells assessed as cell viability at 100 uM after 6 hrs by CellTiter Glo luminescent assay relative to control
- Format: cell-based, SK-BR-3
- Test Conditions: read-out: Activity
Below is a list of entries, each paired with its recorded viability at 6 h, 100 µM value.
Measure: viability at 6 h, 100 µM

Cc1nn(C(=O)c2ccccc2)c(N)c1-c1ccc(Cl)c(Cl)c1 : ≥ 80%
CCC(=O)n1nc(C)c(-c2ccc(Cl)c(Cl)c2)c1N : ≥ 80%
Cc1nn(C(=O)C2CCCCC2)c(N)c1-c1ccc(Cl)c(Cl)c1 : ≥ 80%
Cc1nn(C(=O)C2CCC2)c(N)c1-c1ccc(Cl)c(Cl)c1 : ≥ 80%
Cc1n[nH]c(N)c1-c1ccc(Cl)cc1 : ≥ 80%
CC(=O)n1nc(C)c(-c2ccc(Cl)c(Cl)c2)c1N : ≥ 80%

* * *

- Test Summary: Octanol/phosphate buffered saline partition coefficient, log D of the compound at pH 7.4
- Type: physicochemical
Measure: logD

CC(=O)n1nc(C)c(-c2ccc(Cl)c(Cl)c2)c1N : 4.09

* * *

- Assay System: Cyclin-dependent kinase 1/cyclin B1 (Homo sapiens, UniProt P06493)
- Test Summary: Inhibition of CDK1/Cyclin B1 (unknown origin)
Measure: IC50

CC(=O)n1nc(C)c(-c2ccc(Cl)c(Cl)c2)c1N : > 100 µM

* * *

- Assay System: 5'-AMP-activated protein kinase catalytic subunit alpha-1 (Homo sapiens, UniProt Q13131)
- Sequence (Q13131 whole entry, the tested form may be a part): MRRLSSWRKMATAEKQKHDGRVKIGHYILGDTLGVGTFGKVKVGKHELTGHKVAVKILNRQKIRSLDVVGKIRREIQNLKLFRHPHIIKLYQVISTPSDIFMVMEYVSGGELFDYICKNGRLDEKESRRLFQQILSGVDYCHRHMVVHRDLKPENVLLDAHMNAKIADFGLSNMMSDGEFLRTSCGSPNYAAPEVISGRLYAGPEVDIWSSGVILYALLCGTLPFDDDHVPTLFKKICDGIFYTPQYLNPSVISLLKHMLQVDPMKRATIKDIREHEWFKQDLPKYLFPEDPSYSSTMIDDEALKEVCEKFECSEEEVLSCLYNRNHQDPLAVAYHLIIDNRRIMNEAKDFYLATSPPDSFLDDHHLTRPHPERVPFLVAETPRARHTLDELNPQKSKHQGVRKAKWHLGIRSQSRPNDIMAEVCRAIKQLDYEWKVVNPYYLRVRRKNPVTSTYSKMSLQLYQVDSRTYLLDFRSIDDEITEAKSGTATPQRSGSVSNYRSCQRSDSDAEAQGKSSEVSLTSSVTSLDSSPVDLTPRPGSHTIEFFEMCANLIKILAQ
- Test Summary: Inhibition of AMPK alpha1 (unknown origin) (1 to 550 residues)
Measure: IC50

CC(=O)n1nc(C)c(-c2ccc(Cl)c(Cl)c2)c1N : > 100 µM

* * *

- Assay System: Dual specificity mitogen-activated protein kinase kinase 1 (Homo sapiens)
- Sequence (Q02750 whole entry): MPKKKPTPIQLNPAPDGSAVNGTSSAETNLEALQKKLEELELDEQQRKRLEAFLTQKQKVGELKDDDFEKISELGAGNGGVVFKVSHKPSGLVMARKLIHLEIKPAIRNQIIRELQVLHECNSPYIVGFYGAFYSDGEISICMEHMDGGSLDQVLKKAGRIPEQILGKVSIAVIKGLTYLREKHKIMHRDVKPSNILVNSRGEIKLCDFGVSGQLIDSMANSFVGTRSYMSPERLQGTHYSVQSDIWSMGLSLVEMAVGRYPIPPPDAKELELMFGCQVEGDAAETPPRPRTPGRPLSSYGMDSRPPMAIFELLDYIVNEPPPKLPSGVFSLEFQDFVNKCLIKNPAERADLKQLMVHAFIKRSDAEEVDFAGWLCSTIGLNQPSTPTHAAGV
- Test Summary: Inhibition of wild-type MEK1 (unknown origin)
Measure: IC50

CC(=O)n1nc(C)c(-c2ccc(Cl)c(Cl)c2)c1N : > 100 µM

* * *

- Test Summary: Cytotoxicity against human SKBR3 cells assessed as cell viability at 50 uM after 6 hrs by CellTiter Glo luminescent assay relative to control
- Type: cell-based, SK-BR-3
- Test Conditions: read-out: Activity
Measure: viability at 6 h, 50 µM

Cc1nn(C(=O)C2CC2)c(N)c1-c1ccc(Cl)c(Cl)c1 : ≥ 80%
O=C(Nc1cc(Cl)c2c(c1)[nH]c1cnccc12)c1cccnc1 : ≥ 80%

* * *

- Test Summary: Cytotoxicity against human MDA-MB-231 cells assessed as cell viability at 50 uM after 6 hrs by CellTiter Glo luminescent assay relative to control
- Type: cell-based
- Test Conditions: read-out: Activity
The following molecules are shown together with reported viability at 6 h, 50 µM values.
Measure: viability at 6 h, 50 µM

Cc1n[nH]c(N)c1-c1ccc(Cl)cc1 : ≥ 80%
O=C(Nc1cc(Cl)c2c(c1)[nH]c1cnccc12)c1cccnc1 : ≥ 80%
Cc1nn(C(=O)C2CC2)c(N)c1-c1ccc(Cl)c(Cl)c1 : ≥ 80%

* * *

Entries annotated with measured IC50
- Assay System: Mitogen-activated protein kinase kinase kinase 14 (Homo sapiens)
- Test Summary: Inhibition of recombinant human full-length N-terminal GST-fused/His6-tagged NIK (M1 to P947 residues) expressed in Sf9 insect cells using AKDVDQGSLCTSFVGTLQY peptide as substrate measured after 60 mins by ADP-Glo kinase assay
Measure: IC50

Cc1n[nH]c(N)c1-c1ccccc1 : > 100 µM
Cc1[nH]nc(N)c1-c1cccc(Cl)c1 : > 100 µM
Cc1nn(C(=O)C2CC2)c(N)c1-c1ccc(Cl)cc1 : > 100 µM
Cc1[nH]nc(N)c1-c1ccc2ccccc2c1 : > 100 µM
Cc1ccc(-c2c(N)n[nH]c2C)cc1 : > 100 µM
CCC(=O)n1nc(C)c(-c2ccc(Cl)c(Cl)c2)c1N : 27.4 µM
Cc1[nH]nc(N)c1-c1ccc(Cl)c(Cl)c1 : > 100 µM
CCc1nn(C(C)=O)c(N)c1-c1ccc(Cl)c(Cl)c1 : > 100 µM
Cc1nn(C(=O)C2CCCC2)c(N)c1-c1ccc(Cl)c(Cl)c1 : 41 µM
Cc1c(N)n[nH]c1-c1ccc(Cl)c(Cl)c1 : > 100 µM
CC(=O)n1nc(C)c(-c2ccc(Cl)c(Cl)c2)c1N : 8.4 µM
Cc1[nH]nc(NC(=O)c2ccccn2)c1-c1ccc(Cl)c(Cl)c1 : > 100 µM
Cc1[nH]nc(N)c1-c1ccc(Br)cc1 : > 100 µM
Cc1[nH]nc(NC(=O)C(F)(F)F)c1-c1ccc(Cl)c(Cl)c1 : > 100 µM
Cc1nn(C(=O)c2ccncc2)c(N)c1-c1ccc(Cl)c(Cl)c1 : 58.2 µM
O=C(Nc1cc(Cl)c2c(c1)[nH]c1cnccc12)c1cccnc1 : > 100 µM
Cc1[nH]nc(N)c1-c1ccc(OCc2ccccc2)cc1 : > 100 µM
Cc1ccc(-c2c(N)n[nH]c2C)cc1C : > 100 µM
CC(=O)n1nc(N)c(Br)c1C : 12.5 µM
Cc1nn(C(=O)c2ccccc2)c(N)c1-c1ccc(Cl)c(Cl)c1 : 23 µM
CCNC(=O)n1nc(C)c(-c2ccc(Cl)c(Cl)c2)c1N : > 100 µM
Cc1c(-c2ccc(Cl)c(Cl)c2)c(N)nn1C(=O)c1cccnc1 : > 100 µM
CC(=O)n1nc(C)c(-c2cccc(C(F)(F)F)c2)c1N : > 100 µM
Cc1c(-c2ccc(Cl)c(Cl)c2)c(N)nn1C(=O)C1CCC1 : > 100 µM
Cc1nn(C(=O)C2CC2)c(N)c1-c1ccc(Cl)c(Cl)c1 : 24.3 µM
Cc1c(-c2ccc(Cl)c(Cl)c2)c(N)nn1C : > 100 µM

* * *

- Assay System: Tyrosine-protein kinase CSK (Homo sapiens)
- Sequence (P41240 whole entry): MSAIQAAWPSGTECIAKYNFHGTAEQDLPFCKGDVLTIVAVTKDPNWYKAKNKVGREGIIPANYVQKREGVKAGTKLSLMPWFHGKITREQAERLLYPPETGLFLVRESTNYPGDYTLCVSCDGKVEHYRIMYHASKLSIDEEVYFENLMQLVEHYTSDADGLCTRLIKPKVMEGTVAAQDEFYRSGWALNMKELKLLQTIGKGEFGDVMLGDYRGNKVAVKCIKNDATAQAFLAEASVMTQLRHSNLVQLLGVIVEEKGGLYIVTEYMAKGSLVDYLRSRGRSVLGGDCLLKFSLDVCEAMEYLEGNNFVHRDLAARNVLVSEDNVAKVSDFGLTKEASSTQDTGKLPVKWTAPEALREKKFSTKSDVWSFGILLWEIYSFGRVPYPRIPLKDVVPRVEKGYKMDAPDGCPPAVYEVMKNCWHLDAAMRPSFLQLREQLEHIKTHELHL
pIC50: −log10 of the molar value.
Measure: pIC50

CC(=O)n1nc(C)c(-c2ccc(Cl)c(Cl)c2)c1N : < 4.00

* * *

- Assay System: Dual specificity tyrosine-phosphorylation-regulated kinase 1A (Homo sapiens, UniProt Q13627)
pIC50: −log10 of the molar value.
Measure: pIC50

CC(=O)n1nc(C)c(-c2ccc(Cl)c(Cl)c2)c1N : < 4.00

* * *

- Test Summary: Cytotoxicity against human EJM cells assessed as cell viability at 50 uM after 6 hrs by CellTiter Glo luminescent assay relative to control
- Assay type: cell-based
- Test Conditions: read-out: Activity
Measure: viability at 6 h, 50 µM

CCC(=O)n1nc(C)c(-c2ccc(Cl)c(Cl)c2)c1N : ≥ 80%
Cc1nn(C(=O)c2ccccc2)c(N)c1-c1ccc(Cl)c(Cl)c1 : ≥ 80%
Cc1n[nH]c(N)c1-c1ccc(Cl)cc1 : ≥ 80%
